# FACS fluorescence listing for each entry below
target: human Claudin-6 (CLDN6) (human) (UniProt P56747); experiment: FACS, 0.3 ug Ab, 293T clone expressing human CLDN6 (2nd Ab only 768.07)
assay-metric: FACS fluorescence

binder	quantitative-readout
AB3-3 (antibody, V domains shown, humanized) VH: EVQLLESGGGLVQPGGSMRLSCAASGFTFSNYWMNWVRQAPGKGLEWVAQIRLKSDNYATHYADSVKGRFTISRDDSKNTVYLQMNSLRAEDTGVYYCNDGPPSGCWGQGTLLTVSS VL: DIQMTQSPSSLSASVGDRVTITCRISENIYSYLAWYQQKPGKAPKLLVYNAKILVEGVPSRFSGSGSGTDFTLTISSLQPEDFGTYYCQHHYTVPWTFGQGTKLEIK	251000
AB11-chim (antibody, V domains shown) VH: DVQLVESGGGLVQPRGSRKLSCAASGFTFSSFGMHWVRQAPEKGLEWVAYISSDSRTIYYADTVKGRFTISRDNPTNTLFLQMTSLRSEDTAMYYCARDYGRTYEAYWGQGTLVTVSA VL: DIVLTQSPASLAVSLGQRATISCRASKSVSTSGYSYIHWYQQKPGQPPKLLIYLASNLESGVPARFSGSGSGTDFTLNIHPVEEEDAATYYCQHSRELPLTFGAGTKLELK	1670
AB9-4 (antibody, V domains shown, humanized) VH: QVQLVQSGAEVKKPGASVKMSCKASGYRFTDYNMHWVRQAPGQGLEWIGYINPNNGGTNYAQKFQGRATLTVDTSTSTAYMELSSLRSEDTAVYYCARDYLYFFDCWGQGTLLTVSS VL: DIQMTQSPSSLSASVGDRVTITCRASQTIGTWLAWYQQKPGKAPKLLIYAAASLADGVPSRFSGSGSGTDFTFTISSLQPEDFVTYYCQQLYSIPRTFGQGTKLEIK	15300
